Molecular target: T1, human [1-305]-mouse chimeric EL (human; mouse, UniProt Q9WVG5 306-500)
T1 construct: Heparin extract, captured or detected by an anti-C2-tag antibody; also called human-mouse chimeric EL
T1 sequence: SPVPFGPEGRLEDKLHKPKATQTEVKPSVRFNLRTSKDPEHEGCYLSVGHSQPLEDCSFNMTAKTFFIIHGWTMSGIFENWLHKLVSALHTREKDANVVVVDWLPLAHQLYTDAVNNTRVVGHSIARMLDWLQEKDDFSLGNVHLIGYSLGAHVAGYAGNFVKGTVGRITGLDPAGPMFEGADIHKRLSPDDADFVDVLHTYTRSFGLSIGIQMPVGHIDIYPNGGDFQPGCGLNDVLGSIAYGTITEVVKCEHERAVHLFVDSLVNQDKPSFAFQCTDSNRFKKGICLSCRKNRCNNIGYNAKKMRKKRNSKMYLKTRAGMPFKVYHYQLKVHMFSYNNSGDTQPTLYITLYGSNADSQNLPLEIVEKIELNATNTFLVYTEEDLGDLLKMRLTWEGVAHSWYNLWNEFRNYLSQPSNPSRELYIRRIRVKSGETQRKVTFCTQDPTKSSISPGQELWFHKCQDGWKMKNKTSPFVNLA
Assay: Biacore; EL captured by anti-C2-tag Ab; bivalent fit
Measurement Type: koff (s⁻¹)
Give a bare numeral; the unit s⁻¹ is implied.

koff recorded for this binder, h55A1-S3 (antibody, V domains shown, humanized) VH: QVQLVQSGSELKKPGASVKVSCKASGYTFTNYGLNWVRQAPGQGLEWMGWINTYSGVPTYAGDFKGRFVFSLDTSVSTAYLQISSLKAEDTAVYYCARRGYYGRRFFDVWGKGTTVTVSS VL: DIVLTQSPASLAVSPGQRATITCKASQSVDYDVDSYMHWYQQKPGQPPKLLIYAASNLASGVPARFSGSGSGTDFTLTINPVEANDTANYYCQNTIEDPPTFGGGTKVEIK , is 0.00051

Lab book: koff of h16B3-S4 (antibody, V domains shown, humanized) VH: EVQLVESGGGLVQPGGSLRLSCAASGFTFSGYTMSWVRQAPGKGLEWVSEISFARDRAFYPDTVKGRFTISRDNSKNTLYLQMNSLRAEDTAVYYCARLGGKNHDFWYFDVWGQGTTVTVSS VL: DIVMTQSPDSLAVSLGERATINCRASESVEYYGTSLMQWYQQKPGQPPKLLIYAASNVESGVPDRFSGSGSGTDFTLTISSLQAEDVAVYYCQQSWRVPFTFGQGTKLEIK noted as 0.00018

Reported koff ( h16B3-S8 (antibody, V domains shown, humanized) VH: EVQLVESGGGLVQPGGSLRLSCAASGFTFSAYTMSWVRQAPGKGLEWVSDISFARDRAFYPDTVKGRFTISRDNSKNTLYLQMNSLRAEDTAVYYCARLGGKNRDFWYFDLWGQGTTVTVSS VL: DIVMTQSPDSLAVSLGERATINCRASESVEYYGTSLMQWYQQKPGQPPKLLIYAASNVESGVPDRFSGSGSGTDFTLTISSLQAEDVAVYYCQQSWRVPFTFGQGTKLEIK ) = 4e-05

All figures here come from patent US20200071424A1.
